- System: MDA-MB-435
- Assay text: NCI tumour cell line growth inhibition, 48 h
The source made the active and inactive calls. Rule as the data show it: active = GI50 up to about 1.1 µM and inactive = higher.
Mark one answer only. Choices: active, inactive

Worked set:
compound="C=CCOC(=O)N1[C@H]2C#C/C=C\\C#C[C@]3(O)C(=O)C[C@H](C)[C@]24O[C@]43C2=CC(=O)C=CC21OC (stereo partly specified)" class_assignment=inactive
compound="Nc1ccc2c(c1)nc1n2C(c2c(F)cccc2F)SC1 (stereo unspecified)" class_assignment=inactive

Lookup: Hi, do you know how Cc1nnc2n1-c1ccccc1N(Cc1ccccc1)CC2 came out in this test?
Found: inactive

Lookup: Hi, do you know how Cc1ccc(S(=O)(=O)N/N=C2\C=CC3(CC2)C(=O)N(I)c2ccccc23)cc1 (stereo unspecified) came out in this test?
Found: inactive

Lookup: Hi, do you know how O=C1N/C(=N/N=C/C(O)C(O)C(O)C(O)CO)N/C1=C\c1ccco1 (stereo unspecified) came out in this test?
Found: inactive

Lookup: Hi, do you know how CC(C)(CO)CNc1nc(N)nc(Cl)c1N came out in this test?
Found: inactive

###

- System: NCI-H522
- Assay text: NCI tumour cell line growth inhibition, 48 h
Calls of active or inactive are those of the source. Rule as the data show it: active = GI50 up to about 1.1 µM and inactive = higher. Non-standard residues stand in square brackets, D forms with d. Residues, ends and D or L forms follow the SMILES beside them. *: point of attachment. NMeF = CN[CH](Cc1ccccc1)C(=O)O; NMeV = CN[CH](C(=O)O)C(C)C; Boc = CC(C)(C)OC(=O)*
Measurement kind: GI50

compound="C=CCOC(=O)N1[C@H]2C#C/C=C\\C#C[C@]3(O)C(=O)C[C@H](C)[C@]24O[C@]43C2=CC(=O)C=CC21OC (stereo partly drawn)" observed="18.6 µM (inactive)"
compound="CC(C)C(NC(=O)OC(C)(C)C)C(=O)N(C)C(Cc1ccccc1)C(=O)N(C)C(C(=O)O)C(C)C (stereo not drawn) (Boc-Val-[NMeF]-[NMeV]-OH; configuration not given here)" observed="71.1 µM (inactive)"
compound=COc1ccc2c(C)cc(N/N=C/c3ccc(C)s3)nc2c1 observed="3.45 µM (inactive)"
compound=COCO[C@@H]1C[C@H]2C(=O)Nc3ccccc3C(=O)N2C1 observed="16.2 µM (inactive)"
compound=COc1cc2c3c(c1)CCCN3CCC2 observed="> 10 µM (inactive)"

Parameters: items (list). Returns: GI50 for each item.
1. CN(/N=C(\C(=O)O)c1ccccc1)C1=NCCCN1
2. Cn1c(=O)nc2n(-c3ccc(Cl)c(C(F)(F)F)c3)c3ccccc3nc-2c1=O
3. O=C(NCCCCNc1cccccc1=O)OCc1ccccc1

Found:
> 100 µM (inactive)
25.1 µM (inactive)
> 100 µM (inactive)

###

- System: UACC-257
- Assay text: NCI tumour cell line growth inhibition, 48 h
Calls of active or inactive are those of the source. No stated cut-off is given here; in the data, active = GI50 up to about 1.1 µM and inactive = higher.
Mark one answer only. Choices: class 1 = active, class 0 = inactive

molecule="CCCCCNC(=O)OC1CCn2c1nc1c2C(=O)C(C)=C(N2CC2)C1=O (stereo unspecified)" study_system=UACC-257 class_assignment="class 0"
molecule="CC1C2C=C(O)C(=O)C(C2=O)C1c1ccccc1 (stereo unspecified)" study_system=UACC-257 class_assignment="class 0"
molecule="COC(=O)C(C(=O)C(=O)Nc1cccc(OC)c1)c1cnc2ccccc2n1 (stereo unspecified)" study_system=UACC-257 class_assignment="class 0"

# input for lookup
Lookup: Hi, do you know how CC(C)N1CN(C(C(=O)N[C@@H]2C(=O)N3C2SC(C)(C)C3C(=O)O)c2ccc(O)cc2)CSC1=S (stereo partly specified) came out in this test?
Found: class 0

###

- System: OVCAR-8
- Assay text: NCI tumour cell line growth inhibition, 48 h
Active and inactive are the calls of the source. Rule as the data show it: active = GI50 up to about 1.1 µM and inactive = higher.
Mark one answer only. Choices: 1 (active), 0 (inactive)

Worked set:
compound=COc1ccc2nc3cc(Cl)ccc3c(NCCCN(Cc3cc(OC)c(OC)c(OC)c3)Cc3cc(OC)c(OC)c(OC)c3)c2c1 study_system=OVCAR-8 class_assignment=0
compound="COC(=O)C(C(=O)C(=O)Nc1cccc(OC)c1)c1cnc2ccccc2n1 (stereo unspecified)" study_system=OVCAR-8 class_assignment=0

Lookup: Hi, do you know how COC(=O)/C(Cl)=C1/CC1COCc1ccccc1 (stereo unspecified) came out in this test?
Found: 0

Lookup: Hi, do you know how O=c1cc(CSc2c(-c3ccccc3)c(=O)n(-c3ccccc3)c(=S)n2-c2ccccc2)[nH]c(=O)[nH]1 came out in this test?
Found: 0

Lookup: Hi, do you know how C/C(=N\NC(=S)N(C)C)c1nc2cccnc2[nH]1 came out in this test?
Found: 1

Lookup: Hi, do you know how CC1=NN(C(=O)c2ccccc2)C(=O)C1/N=N/c1ccccc1C(=O)O (stereo unspecified) came out in this test?
Found: 0

###

- System: CCRF-CEM
- Assay text: NCI tumour cell line growth inhibition, 48 h
Active and inactive are the calls of the source. Rule as the data show it: active = GI50 up to about 1.1 µM and inactive = higher.
Measurement kind: GI50

molecule="N#Cc1c(-c2ccc(Cl)cc2)c2c(n(C3OC(CO)C(O)C(O)C3O)c1=S)CCC2 (centres undefined)" measurement_kind=GI50 observed="16.1 µM (inactive)"
molecule=O=C(O)CN(c1ccc(Cl)cc1)S(=O)(=O)c1ccccc1 measurement_kind=GI50 observed="> 100 µM (inactive)"
molecule="OCC1OC(n2cnc3c2NC=NC[C@H]3O)CC1O (some centres undefined)" measurement_kind=GI50 observed="392 µM (inactive)"
molecule=CN(Cc1cc(C(C)(C)C)cc(Br)c1O)Cc1cc(C(C)(C)C)cc(Br)c1O measurement_kind=GI50 observed="2.7 µM (inactive)"
molecule="O=C(O)C1C2CCC(C2)C1c1ccccc1 (centres undefined)" measurement_kind=GI50 observed="> 100 µM (inactive)"

Parameters: items (list). Returns: GI50 for each item.
1. CCCN(CCC)CCc1cc(C(C)=O)n(S(=O)(=O)c2ccc(C)cc2)c1
2. Cc1c(C)c(C)n(C2OC(CO)C(O)C(O)C2O)c(=S)c1C#N (centres undefined)
3. Cl/C(=C\C=N\c1ccc(I)cc1)c1ccc2ccccc2c1

Found:
1. > 100 µM (inactive)
2. > 100 µM (inactive)
3. 7.29 µM (inactive)

Parameters: items (list). Returns: GI50 for each item.
1. O=C(/C=C/c1cccc(Br)c1)N1CCN(CCOC(c2ccccc2)c2ccccc2)CC1
2. Nc1ncnc2oc(-c3cccs3)nc12
3. Cc1nnc2n1N=C(c1ccccc1)/C(=C/c1ccc(-c3ccc(Cl)cc3)o1)S2
4. CCOC(=O)NN(C(=O)OCC)C(=C(c1ccccc1)N1CCOCC1)N(NC(=O)OCC)C(=O)OCC
5. O=C(NNC(=O)c1csc(NC(=S)NC2CCCCC2)n1)c1ccccc1
6. N#Cc1ccc(/N=N/N2CCCC2)cc1

Found:
1: 17.1 µM (inactive); 2: > 100 µM (inactive); 3: 2.71 µM (inactive); 4: > 100 µM (inactive); 5: 3.61 µM (inactive); 6: 43.7 µM (inactive)

###

- Test system: UACC-62
- Assay text: NCI tumour cell line growth inhibition, 48 h
Calls of active or inactive are those of the source. No stated cut-off is given here; in the data, active = GI50 up to about 1.1 µM and inactive = higher.
Mark one answer only. Choices: active, inactive

Worked set:
molecule="CC(NC(=O)c1ccc(OP(=O)(OCc2ccc([N+](=O)[O-])o2)N(C)CCCCCl)cc1)c1ccc(OCC2CCCCC2)c(C(N)=O)c1 (stereo not given)" study_system=UACC-62 class_assignment=inactive
molecule=N#CCC(=O)N1CCCOCCC1 study_system=UACC-62 class_assignment=inactive
molecule="OCC1OC(n2cnc3c(Cl)nc(Nc4ccc(Cl)c(Cl)c4)nc32)CC1O (stereo not given)" study_system=UACC-62 class_assignment=inactive
molecule="CC(C)N1CN(C(C(=O)N[C@@H]2C(=O)N3C2SC(C)(C)C3C(=O)O)c2ccc(O)cc2)CSC1=S (stereo not given in full)" study_system=UACC-62 class_assignment=inactive
molecule=C#Cc1c(C)c(/C=C/C(C)=C/C(=O)OC)n(C)c1C study_system=UACC-62 class_assignment=inactive

Lookup: Hi, do you know how O=S(=O)(/N=C(\NO)Nc1ccc(Cl)cc1)c1ccc(-c2ccccn2)s1 came out in this test?
Found: inactive

Lookup: Hi, do you know how COC(CC1(CCNc2ccccc2)C(=O)N(COCC[Si](C)(C)C)c2ccccc21)OC (stereo not given) came out in this test?
Found: inactive

Lookup: Hi, do you know how CCN1C(=O)C(=C/C=C/C=C2/N(C)c3ccccc3C2(C)C)C(=O)N(CC)C1=S came out in this test?
Found: inactive

Lookup: Hi, do you know how C#CC(O)/C=C/C(O)CCCC(O)CC#CC(O)C#CCCCCC(O)/C=C/CCCC(O)/C=C/CCCCCCCCCCCCCC(O)C(O)C#CC(=O)O (stereo not given) came out in this test?
Found: inactive

###

- System: CAKI-1
- Assay text: NCI tumour cell line growth inhibition, 48 h
Activity calls are given as the source filed them. No stated cut-off is given here; in the data, active = GI50 up to about 1.1 µM and inactive = higher.
Mark one answer only. Choices: Y (active), N (inactive)

compound=COc1cc2c3c(c1)CCCN3CCC2 class_assignment=N
compound="O=[N+]([O-])c1ccc(C2=NOC(c3ccccc3)N2C23CC4CC(CC(C4)C2)C3)cc1 (configuration not stated)" class_assignment=N
compound="CC1CC2OC(=N)C1(C#N)C2(C#N)C#N (configuration not stated)" class_assignment=N
compound=COC(=O)c1ccc(Cc2ccc(C(=O)OC)o2)o1 class_assignment=N
compound=CCOC(=O)NC(=O)c1cn(C2CCCCC2)c(=O)n(C)c1=O class_assignment=N
compound=CN(C)CCNC(=O)c1cccc2cc([N+](=O)[O-])ccc12 class_assignment=Y

# input for lookup
Lookup: Hi, do you know how CC(=O)Nc1ccc2c3c(cc(O)c2c1)N(C(=O)CCCCCCC(=O)Nc1ccc2c4c(cc(O)c2c1)N(C(=O)OC(C)(C)C)CC4CCl)CC3CCl (configuration not stated) came out in this test?
Found: Y
